// provenance: patent US6964975B2

Biological target: human EDG-2 (Homo sapiens)
Construct: cDNA of the cloned human EDG-2 was introduced into pEFneo, which is an animal expression vector
Experiment: Inhibitory activity on LPA-induced elevation of intracellular Ca2+ level
Conditions: 50% inhibition of elevation of intracellular Ca2+ level by LPA, human EDG-2/HepG2 cells, fura-2
IC50 by entry:

What does the record list as IC50 for Cc1noc(-c2ccc(F)cc2F)c1NC(=O)OC(C)c1ccccc1Cl (centres unmarked) ?
1 to 3 µM

* * *

Biological target: human EDG-2 (Homo sapiens)
Construct: cDNA of the cloned human EDG-2 was introduced into pEFneo, which is an animal expression vector
Test: Inhibitory activity on LPA-induced elevation of intracellular Ca2+ level
Details: 50% inhibition of elevation of intracellular Ca2+ level by LPA, human EDG-2/HepG2 cells, fura-2
pIC50: −log10 of the molar value.
reported_endpoint: pIC50

molecule	pIC50
CCc1noc(-c2ccc(CCl)cc2)c1NC(=O)OC(c1ccccc1)C(F)(F)F (stereo not drawn)	5.00 to 5.52
COC(=O)CCSCc1ccc(-c2onc(C)c2NC(=O)OC(C)c2ccccc2F)cc1 (stereo not drawn)	5.00
CCc1noc(-c2ccc(CSCC(=O)O)cc2)c1NC(=O)OC(C)c1ccccc1Cl (stereo not drawn)	5.00 to 5.52
Cc1ccccc1CCOC(=O)Nc1c(-c2ccccc2)noc1C	4.00 to 4.52
CCOCc1cccc(-c2onc(C)c2NC(=O)OC(C)c2ccccc2Cl)c1 (stereo not drawn)	5.00 to 5.52
COCc1ccc(-c2onc(C)c2NC(=O)OC(C)c2ccccc2Cl)cc1 (stereo not drawn)	5.52
Cc1noc(-c2ccc([N+](=O)[O-])cc2)c1NC(=O)OC(C)c1ccccc1 (stereo not drawn)	4.52 to 5.00
Cc1noc(-c2cccc(CSCCO)c2)c1NC(=O)OC(C)c1ccccc1Cl (stereo not drawn)	5.52

We now examine a further molecule.
pIC50 lookup needed for Cc1noc(-c2ccsc2)c1NC(=O)OC(C)c1ccccc1Cl (stereo not drawn) , thanks.
5.00 to 5.52

* * *

Target: human EDG-2 (Homo sapiens, UniProt Q92633)
Construct: cDNA of the cloned human EDG-2 was introduced into pEFneo, which is an animal expression vector; expressed in transfected cells; host or cells: HepG2
Sequence (Q92633 whole entry): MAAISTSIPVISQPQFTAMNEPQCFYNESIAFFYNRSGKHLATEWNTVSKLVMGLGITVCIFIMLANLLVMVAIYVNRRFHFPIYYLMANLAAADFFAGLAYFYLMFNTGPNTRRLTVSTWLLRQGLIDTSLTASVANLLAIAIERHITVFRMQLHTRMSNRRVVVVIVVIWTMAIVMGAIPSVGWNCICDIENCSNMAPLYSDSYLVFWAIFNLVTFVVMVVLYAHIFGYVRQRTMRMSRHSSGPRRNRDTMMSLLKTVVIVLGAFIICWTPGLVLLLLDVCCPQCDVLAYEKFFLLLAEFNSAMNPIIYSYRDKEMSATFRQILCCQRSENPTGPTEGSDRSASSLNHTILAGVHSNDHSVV
Test: Inhibitory activity on LPA-induced elevation of intracellular Ca2+ level
Assay type: cell-based
Conditions: 50% inhibition of elevation of intracellular Ca2+ level by LPA, human EDG-2/HepG2 cells, fura-2
Description: The human EDG-2 expression plasmid was introduced into HepG2 cells by electroporation. After the introduction, culturing was continued while exchanging selective media every 3 to 4 days, thereby obtaining an expressed colony. Regarding these cells, Ca-influx and cell-proliferation by LPA, level of [^3H] LPA binding and the like were inspected to select a cell line which highly expresses human EDG-2 (human EDG-2/HepG2). […]
Entries annotated with measured IC50

// solved cases for IC50 follow
compound	IC50
Cc1ccc(-c2onc(C)c2NC(=O)OC(C)c2ccccc2Cl)s1 (stereo not shown) [Compound 69]	3 to 10 µM
Cc1noc(-c2ccc(CSCC(O)CO)cc2)c1NC(=O)OC(C)c1ccccc1Cl (stereo not shown) [Compound 135]	3 to 10 µM
Cc1noc(-c2ccc(COc3ccccc3)cc2)c1NC(=O)OC(C)c1ccccc1Cl (stereo not shown) [Compound 79]	3 µM

With those in mind, consider the next compound.
Fill in: IC50 of CCCCCNCc1ccc(-c2onc(C)c2NC(=O)OC(C)c2ccccc2Cl)cc1 (stereo not shown) [Compound 109] is ___
10 to 30 µM
